Molecular target: Gal(b1-4)GlcNAc(b1-6)[Gal(b1-3)]GalNAc
Assay: glycan array binding signal (z-score within array); higher = stronger binding
Details: glycan notation: IUPAC condensed, linker removed
This excerpt belongs to a sample that is enriched for the strongest signals.
observed_property: glycan array binding signal (z-score)
Reply briefly: the number, and no unit.

Lab book: glycan array binding signal (z-score) of Gal 8 (Homo sapiens) (protein) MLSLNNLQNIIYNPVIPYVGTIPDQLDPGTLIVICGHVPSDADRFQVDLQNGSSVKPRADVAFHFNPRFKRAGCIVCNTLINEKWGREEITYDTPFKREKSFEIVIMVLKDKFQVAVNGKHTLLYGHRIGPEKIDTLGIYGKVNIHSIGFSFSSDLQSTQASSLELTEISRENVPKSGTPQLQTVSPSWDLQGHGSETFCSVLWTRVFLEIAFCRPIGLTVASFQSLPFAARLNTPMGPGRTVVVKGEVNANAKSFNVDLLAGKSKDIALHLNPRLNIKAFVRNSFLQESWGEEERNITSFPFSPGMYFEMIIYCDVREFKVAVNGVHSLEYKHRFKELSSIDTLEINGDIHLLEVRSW noted as -0.305

Origin of measurements: the supplement of paper PMC8728848
